assay procedure: Antiproliferative activity against human NAMALWA cells after 48 hrs by WST-8 assay
Type: functional, cell-based
measurement conditions: NAMALVA
endpoint name: IC50 (µM)
Report the figure in µM without appending any unit label.

Read the entry CCCCC(C)C1=CC(=O)C2=C(O[C@]3(C)CC[C@H]4O[C@@H]([C@@](C)(O)C(=O)O)CC[C@]4(C)[C@H]3C2)C1=O (stereo partly specified) and write its reported IC50.
3.5

----------
Test system: HT-29
assay procedure: Antiproliferative activity against human HT-29 cells after 48 hrs by WST-8 assay
Format: functional, cell-based
measurement conditions: HT-29, 48 h
endpoint name: IC50 (µM)
Numeric only. Scale: µM

Identify IC50 associated with the compound CCCCC(C)C1=CC(=O)C2=C(O[C@]3(C)CC[C@H]4O[C@@H]([C@@](C)(O)C(=O)O)CC[C@]4(C)[C@H]3C2)C1=O (stereo partly specified)
4

----------
tgt: Tyrosyl-DNA phosphodiesterase 1 (Homo sapiens, UniProt Q9NUW8)
Sequence (Q9NUW8 whole entry): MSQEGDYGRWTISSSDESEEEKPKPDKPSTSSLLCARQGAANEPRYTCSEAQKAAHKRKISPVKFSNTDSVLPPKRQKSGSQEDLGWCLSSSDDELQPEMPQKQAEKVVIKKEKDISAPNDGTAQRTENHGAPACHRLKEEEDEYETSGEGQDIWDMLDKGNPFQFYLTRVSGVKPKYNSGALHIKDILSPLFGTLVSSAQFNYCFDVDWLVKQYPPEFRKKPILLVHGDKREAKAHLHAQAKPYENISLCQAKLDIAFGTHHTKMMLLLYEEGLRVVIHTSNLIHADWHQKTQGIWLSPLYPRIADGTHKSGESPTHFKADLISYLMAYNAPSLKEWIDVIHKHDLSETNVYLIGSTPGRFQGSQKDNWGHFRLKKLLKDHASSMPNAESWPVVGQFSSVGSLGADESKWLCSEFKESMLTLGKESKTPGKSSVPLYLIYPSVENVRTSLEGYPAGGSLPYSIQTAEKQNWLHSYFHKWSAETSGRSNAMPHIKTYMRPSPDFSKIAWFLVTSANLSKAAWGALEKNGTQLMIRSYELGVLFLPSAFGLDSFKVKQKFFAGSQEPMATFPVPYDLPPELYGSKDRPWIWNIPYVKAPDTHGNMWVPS
endpoint name: IC50 (µM)
The figure you give is taken to be in µM; do not add the unit.

Given CCCCC(C)C1=CC(=O)C2=C(O[C@]3(C)CC[C@H]4O[C@@H]([C@@](C)(O)C(=O)O)CC[C@]4(C)[C@H]3C2)C1=O (stereo partly specified) , report its IC50 on Tyrosyl-DNA phosphodiesterase 1 (Homo sapiens, UniProt Q9NUW8).
18

Where these numbers come from: ChEMBL document CHEMBL2034861
